Tested on: E. coli (1956)
assay: MIC determination by microplate dilution, E. coli animal strain
Assay type: cell-based, Escherichia coli
setup-conditions: Escherichia coli, Gram-negative, Mueller-Hinton medium, 24 h, 37° C.
So basically: is MIC under 30 µg/mL? Then true. Not under? Then false.

compound	class-assignment
COC(=O)CC[C@@H](C)[C@H]1CCC2C3C(CC[C@@]21C)[C@@]1(C)CC[C@H](NCCCNCCCNCCCN)CC1C[C@@H]3O (stereo partly drawn) [Compound (12), methyl 3β-norsperminoursodeoxycholate]	false
COC(=O)CC[C@@H](C)[C@H]1CCC2C3CCC4C[C@@H](NCCCNCCCNCCCN)CC[C@]4(C)C3CC[C@@]21C (stereo partly drawn) [Compound (17), methyl 3β-norsperminolithocholate]	true
CC(C)OC(=O)CC[C@@H](C)[C@H]1CCC2C3C(CC[C@@]21C)[C@@]1(C)CC[C@H](NCCCNCCCN)CC1C[C@@H]3O (some centres unmarked) [Compound (14)]	false
COC(=O)CC[C@@H](C)[C@H]1CCC2C3CCC4C[C@@H](NCCCN(CCCN)CCCN)CC[C@]4(C)C3CC[C@@]21C (some centres unmarked) [(46)]	true
COC(=O)CC[C@@H](C)[C@H]1CCC2C3CCC4C[C@@H](NCCNCCNCCNCCNCCN)CC[C@]4(C)C3C[C@H](O)[C@@]21C (some centres unmarked) [(20)]	true
CC(C)OC(=O)CC[C@@H](C)[C@H]1CCC2C3C(CC[C@@]21C)[C@@]1(C)CC[C@H](NCCCNCCCNCCCN)CC1C[C@@H]3O (stereo partly drawn) [(51), isopropyl 3β-norsperminoursodeoxycholate]	false
CC(C)OC(=O)CC[C@@H](C)[C@H]1CCC2C3C(CC[C@@]21C)[C@@]1(C)CC[C@H](NCCCNCCCNCCCN)CC1C[C@H]3O (some centres unmarked) [Compound (10)]	true
COC(=O)CC[C@@H](C)[C@H]1CCC2C3C(CC[C@@]21C)[C@@]1(C)CC[C@H](NCCCN(CCCN)CCCN)CC1C[C@H]3O (some centres unmarked) [(38)]	true
CC(C)OC(=O)CC[C@@H](C)[C@H]1CCC2C3C(CC[C@@]21C)[C@@]1(C)CC[C@H](NCCCN(C)CCCN)CC1C[C@H]3O (some centres unmarked) [(41)]	true
CC(C)OC(=O)CC[C@@H](C)[C@H]1CCC2C3C(C[C@H](O)[C@@]21C)[C@@]1(C)CC[C@H](NCCCN(C)CCCN)CC1C[C@H]3O (some centres unmarked) [(36)]	false
CC(C)OC(=O)CC[C@@H](C)[C@H]1CCC2C3CCC4C[C@@H](NCCNCCNCCNCCNCCN)CC[C@]4(C)C3C[C@H](O)[C@@]21C (some centres unmarked) [(27)]	false
CC(C)OC(=O)CC[C@@H](C)[C@H]1CCC2C3C(CC[C@@]21C)[C@@]1(C)CC[C@H](NCCCN(CCCN)CCCN)CC1C[C@H]3O (some centres unmarked) [(39)]	true
CC(C)OC(=O)CC[C@@H](C)[C@H]1CCC2C3CCC4C[C@@H](NCCCNCCCNCCCN)CC[C@]4(C)C3C[C@H](O)[C@@]21C (stereo partly drawn) [Compound (1), isopropyl 3β-norsperminodeoxycholate]	true
CC(C)OC(=O)CC[C@@H](C)[C@H]1CCC2C3C(CC[C@@]21C)[C@@]1(C)CC[C@H](NCCNCCNCCNCCNCCN)CC1C[C@H]3O (some centres unmarked) [(23)]	false
COC(=O)CC[C@@H](C)[C@H]1CCC2C3C(CC[C@@]21C)[C@@]1(C)CC[C@H](NCCCNCCCN)CC1C[C@@H]3O (stereo partly drawn) [(13), methyl 3β-norspermidinoursodeoxycholate]	false
CC(C)OC(=O)CC[C@@H](C)[C@H]1CCC2C3C(C[C@H](O)[C@@]21C)[C@@]1(C)CC[C@H](NCCCNCCCN)CC1C[C@H]3O (stereo partly drawn) [(7), isopropyl 3β-norspermidinocholate]	false
COC(=O)CC[C@@H](C)[C@H]1CCC2C3CCC4C[C@@H](NCCNCCNCCNCCN)CC[C@]4(C)C3C[C@H](O)[C@@]21C (some centres unmarked) [(19)]	true
COC(=O)CC[C@@H](C)[C@H]1CCC2C3C(CC[C@@]21C)[C@@]1(C)CC[C@H](NCCCNCCCN)CC1C[C@H]3O (stereo partly drawn) [(9), methyl 3β-norspermidinochenodeoxycholate]	true
CC(C)OC(=O)CC[C@@H](C)[C@H]1CCC2C3C(CC[C@@]21C)[C@@]1(C)CC[C@H](NCCCN(C)CCCN)CC1C[C@@H]3O (some centres unmarked) [(44)]	false

---

System: CHO-K1 cells
assay: WST1 cytotoxicity test on CHO-K1 cells
Assay type: cell-based, Chinese hamster
setup-conditions: Cricetulus griseus, CHO-K1, read-out: IC50 (μg/mL) CHO

compound	IC50
CC(C)OC(=O)CC[C@@H](C)[C@H]1CCC2C3C(CC[C@@]21C)[C@@]1(C)CC[C@H](NCCCNCCCN)CC1C[C@H]3O (stereo partly shown) [(11)]	140 µg/mL
CC(C)OC(=O)CC[C@@H](C)[C@H]1CCC2C3CCC4C[C@@H](NCCCNCCCN)CC[C@]4(C)C3CC[C@@]21C (stereo partly drawn) [(16), isopropyl 3β-norspermidinolithocholate]	13 µg/mL
COC(=O)CC[C@@H](C)[C@H]1CCC2C3CCC4C[C@@H](NCCCN(CCCN)CCCN)CC[C@]4(C)C3C[C@H](O)[C@@]21C (stereo partly shown) [(32)]	30 µg/mL
CC(C)OC(=O)CC[C@@H](C)[C@H]1CCC2C3C(CC[C@@]21C)[C@@]1(C)CC[C@H](NCCN(CCN)CCN)CC1C[C@H]3O (stereo partly shown) [(40)]	140 µg/mL
COC(=O)CC[C@@H](C)[C@H]1CCC2C3CCC4C[C@@H](NCCNCCNCCNCCN)CC[C@]4(C)C3C[C@H](O)[C@@]21C (stereo partly shown) [(19)]	40 µg/mL
CC(C)OC(=O)CC[C@@H](C)[C@H]1CCC2C3C(CC[C@@]21C)[C@@]1(C)CC[C@H](NCCCNCCCNCCCN)CC1C[C@H]3O (stereo partly shown) [Compound (10)]	85 µg/mL
COC(=O)CC[C@@H](C)[C@H]1CCC2C3CCC4C[C@@H](NCCCN(C)CCCN)CC[C@]4(C)C3C[C@H](O)[C@@]21C (stereo partly shown) [(31)]	55 µg/mL
COC(=O)CC[C@@H](C)[C@H]1CCC2C3C(CC[C@@]21C)[C@@]1(C)CC[C@H](NCCCN(CCCN)CCCN)CC1C[C@H]3O (stereo partly shown) [(38)]	17 µg/mL
CC(C)OC(=O)CC[C@@H](C)[C@H]1CCC2C3C(CC[C@@]21C)[C@@]1(C)CC[C@H](NCCCN(CCCN)CCCN)CC1C[C@H]3O (stereo partly shown) [(39)]	110 µg/mL
CC(C)OC(=O)CC[C@@H](C)[C@H]1CCC2C3CCC4C[C@@H](NCCNCCNCCNCCNCCN)CC[C@]4(C)C3C[C@H](O)[C@@]21C (stereo partly shown) [(27)]	110 µg/mL

---

Reported MIC values for the following molecules.
Test system: E. coli ATCC28922
assay: MIC determination by microplate dilution, E. coli human strain
Assay type: cell-based, Escherichia coli
setup-conditions: Escherichia coli, ATCC28922, Gram-negative, Mueller-Hinton medium, 24 h, 37° C.

molecule	MIC
COC(=O)CC[C@@H](C)[C@H]1CCC2C3CCC4C[C@@H](NCCCNCCCNCCCN)CC[C@]4(C)C3CC[C@@]21C (stereo partly drawn) [Compound (17), methyl 3β-norsperminolithocholate]	28 mg/L
COC(=O)CC[C@@H](C)[C@H]1CCC2C3C(CC[C@@]21C)[C@@]1(C)CC[C@H](NCCNCCNCCNCCNCCN)CC1C[C@@H]3O (stereo partly drawn)	60 mg/L
CC(C)OC(=O)CC[C@@H](C)[C@H]1CCC2C3C(CC[C@@]21C)[C@@]1(C)CC[C@H](NCCCNCCCN)CC1C[C@H]3O (stereo partly drawn)	14 mg/L

---

Test system: P. aeruginosa (1051575)
assay: MIC determination by microplate dilution, P. aeruginosa animal strain
Format: cell-based, Pseudomonas aeruginosa
setup-conditions: Pseudomonas aeruginosa, Gram-negative, Mueller-Hinton medium, 24 h, 37° C.
hey, just use Condition met if measured MIC is less than 30 µg/mL, otherwise Condition not met

compound	class-assignment
COC(=O)CC[C@@H](C)[C@H]1CCC2C3CCC4C[C@@H](NCCCN(C)CCCN)CC[C@]4(C)C3C[C@H](O)[C@@]21C (stereo partly drawn)	Condition met
CC(C)OC(=O)CC[C@@H](C)[C@H]1CCC2C3CCC4C[C@@H](NCCNCCNCCNCCNCCN)CC[C@]4(C)C3C[C@H](O)[C@@]21C (stereo partly drawn)	Condition not met
COC(=O)CC[C@@H](C)[C@H]1CCC2C3CCC4C[C@@H](NCCCN(C)CCCN)CC[C@]4(C)C3CC[C@@]21C (stereo partly drawn)	Condition met
COC(=O)CC[C@@H](C)[C@H]1CCC2C3CCC4C[C@@H](NCCCN(CCCN)CCCN)CC[C@]4(C)C3C[C@H](O)[C@@]21C (stereo partly drawn)	Condition met
COC(=O)CC[C@@H](C)[C@H]1CCC2C3C(CC[C@@]21C)[C@@]1(C)CC[C@H](NCCCN(CCCN)CCCN)CC1C[C@H]3O (stereo partly drawn)	Condition met
